B1: LINE1-mini (parent)
chain: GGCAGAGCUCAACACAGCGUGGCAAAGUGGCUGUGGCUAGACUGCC

Variants of: B1
Assay: self-cleavage, relative activity (ratio to wild type); higher = more cleavage; in vitro, sequencing; the parent is a self-cleaving ribozyme
For each entry below, report its self-cleavage value.
Answers are plain numbers.

Observe how each entry below is paired with its result.
| sequence.input | reading |
| --- | --- |
| GGCAGAGCUCCACACAGCGUGGCAAAGUGGCUGUGGCAAGACUGCC | 0.02 |
| GGCAGAGCUCUACACAGCGUGGCAAAGAGGCUGUGGCUAGACUGCC | 0.11 |
| GGAAGAGCUCAACACAGCGUGGCAAAGUGGCUGUGGUUAGACUGCC | 0.33 |
| GGCAGAGCUCAACACAGCGUGGGAAAGUGGCUGUGGCAAGACUGCC | 0.32 |

For each of the variants below, state self-cleavage.
1. GGCAGAGCUCAACACAGCGUGACAAAGUGGCUGGGGCUAGACUGCC
2. GGCAGAGCUCAACACAGCGUGGCAAAGUGGCAGUCGCUAGACUGCC
3. CGCAGAGCUCAACACAGCGUGGCAAAGUGGCUGUGGCUGGACUGCC

Key:
0.51
0.08
0.01

Value sought for every listed variant: self-cleavage.
1. CGCAGAGCUCAACACAGCGUGGCAAUGUGGCUGUGGCUAGACUGCC
2. GGCAGAGCUCAACACAGCGUGGCAAAGUGGCUUUUGCUAGACUGCC
3. GGCAGAGCUCAAGACAGCGUGGCAAAGUGGCUGUGGCUAGACUGAC
4. GGCAGAGCUCAACACAGCGUGGCAAAGUGGCUGUGGCUAUACUGCG
5. GGCAGUGCUCAACACAGCGUGGCAAAGUGGCUGUGACUAGACUGCC

Key:
1. 0.12
2. 0.11
3. 0.25
4. 0.06
5. 0.26

List the reported self-cleavage of each variant below.
1. GGCAGAGCUUAACACAACGUGGCAAAGUGGCUGUGGCUAGACUGCC
2. GGCAGAGCUCAACACAGCGUCACAAAGUGGCUGUGGCUAGACUGCC
3. GGCAGAGCUCAACACAGCGUGGCAAAGUGGCUGUGGCUAAACUCCC
4. GGCAGAGCUCAACACAGCGUGCCAAAGUCGCUGUGGCUAGACUGCC
5. GGCAGAGCUCAACACAGCGUGGCAAAUUGGCUGAGGCUAGACUGCC
6. GGCAGAGCUCAACAAAGCGUGGCAAAGUGGCUGCGGCUAGACUGCC
7. GGCAGAGCUCAACACAGCGUGGCCAAGUGGCUGUCGCUAGACUGCC

Key:
[0.34, 0.48, 0.08, 0.27, 0.23, 0.06, 0.06]

Please give self-cleavage for each item listed below.
1. GGCAGAGCUCAACACAGCGUGGCUAAAUGGCUGUGGCUAGACUGCC
2. GGAAGAGCUCAACACAGCGUGGCAGAGUGGCUGUGGCUAGACUGCC
3. GGCAGAACUCAACACGGCGUGGCAAAGUGGCUGUGGCUAGACUGCC
4. GGCAGAGCUCAGCACAGCGUGGCAAAGUGGCUGUGGCUAGGCUGCC
5. GGCAGAGCUCAACACAGCGUGGCAAAGCGGCUGUGGCUAUACUGCC
6. GGCAGAGCUCAACGCAGCGUGGCAAUGUGGCUGUGGCUAGACUGCC
7. GGCAGAGCUCAACACAGCGUGGAAAACUGGCUGUGGCUAGACUGCC
8. GGCAGAGCUCAACACAGCGCGGCAAAGUGGCUGUGGCUAGACGGCC

Key:
[0.92, 0.29, 0.28, 0.03, 0.17, 0.59, 0.81, 0.01]

The measurements presented in this section are drawn from the RNAGym collection of RNA variant scans (doi:10.7554/elife.90254).
